Test system: Vibrio parahaemolyticus K - 5
Test: In vitro antibacterial activity (MIC)
Type: cell-based
Settings: K5; Vibrio parahaemolyticus K - 5; in vitro; sodium salts; read-out: MIC
measured_parameter: MIC (µg/mL)
Give your result in µg/mL as a bare value.

For orientation, consider the following solved cases.
| compound | MIC [µg/mL] |
| --- | --- |
| CCOC(=O)Oc1ccc([C@@H](NC(=O)N2CCN(CC)C(=O)C2=O)C(=O)NC2C(=O)N3C(C(=O)O)=C(CSc4nncs4)CS[C@H]23)cc1 (single isomer, unassigned) | 6.25 |
| CCN1CCN(C(=O)N[C@@H](C(=O)N[C@@H]2C(=O)N3[C@@H]2SC(C)(C)[C@@H]3C(=O)O)c2ccccc2)C(=O)C1=O [C, reference compound] | 12.5 |
| CCN1CCN(C(=O)N[C@@H](C(=O)NC2C(=O)N3C(C(=O)O)=C(CSc4nncs4)CS[C@H]23)c2ccc(OC(C)=O)c(Cl)c2)C(=O)C1=O (single isomer, unassigned) | 12.5 |

As a next step, examine the compound that follows.
Field request: MIC | item: CCN1CCN(C(=O)N[C@@H](C(=O)NC2C(=O)N3C(C(=O)O)=C(CSc4nncs4)CS[C@H]23)c2ccc(OC(C)=O)cc2)C(=O)C1=O (single isomer, unassigned)
6.25

* * *

Test system: Klebsilla pneumoniae
Assay: In vitro antibacterial activity (MIC)
Format: cell-based
Conditions: Klebsilla pneumoniae; in vitro; sodium salts; read-out: MIC
measured_parameter: MIC (µg/mL)
Give your result in µg/mL as a bare value.

For orientation, consider the following solved cases.
| compound | measured_parameter | display_unit | readout_value |
| --- | --- | --- | --- |
| Cc1nnc(SCC2=C(C(=O)O)N3C(=O)[C@@H](NC(=O)Cn4cnnn4)[C@H]3SC2)s1 [CEZ, sodium cefazolin, reference compound] | MIC | µg/mL | 0.78 |
| CCN1CCN(C(=O)N[C@@H](C(=O)NC2C(=O)N3C(C(=O)O)=C(CSc4nncs4)CS[C@H]23)c2ccc(O)c(Cl)c2)C(=O)C1=O (single isomer, unassigned) | MIC | µg/mL | 0.78 |

Field request: MIC | item: CCOC(=O)Oc1ccc([C@@H](NC(=O)N2CCN(CC)C(=O)C2=O)C(=O)NC2C(=O)N3C(C(=O)O)=C(CSc4nncs4)CS[C@H]23)cc1 (single isomer, unassigned)
0.39

Field request: MIC | item: CCN1CCN(C(=O)N[C@@H](C(=O)NC2C(=O)N3C(C(=O)O)=C(CSc4nncs4)CS[C@H]23)c2ccc(OC(C)=O)c(Cl)c2)C(=O)C1=O (single isomer, unassigned)
0.78

Field request: MIC | item: CCN1CCN(C(=O)N[C@@H](C(=O)NC2C(=O)N3C(C(=O)O)=C(CSc4nncs4)CS[C@H]23)c2ccc(OC(C)=O)cc2)C(=O)C1=O (single isomer, unassigned)
0.78
